# Tested system: TRβ (Homo sapiens, UniProt P10828)
# Construct: expressed in transfected cells; host or cells: HEK293
# Sequence (P10828 217-461 limits assumed): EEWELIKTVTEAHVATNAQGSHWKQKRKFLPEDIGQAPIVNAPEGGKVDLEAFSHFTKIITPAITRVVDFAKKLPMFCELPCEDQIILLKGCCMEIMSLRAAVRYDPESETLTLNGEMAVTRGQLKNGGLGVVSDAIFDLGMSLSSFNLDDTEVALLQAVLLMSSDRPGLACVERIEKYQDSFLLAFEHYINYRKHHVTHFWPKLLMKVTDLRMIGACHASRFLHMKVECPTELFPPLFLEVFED
# Assay info: TR reporter-gene assay (Gal4 DBD hybrid, luciferase), TRβ
# Assay type: cell-based
# Measurement setup: HEK293-derived reporter cells, 24 hr treatment; read-out: TRβ EC50
Observed property: EC50

# annotated cases, reported EC50 shown
Cc1cc(CCC(=O)O)cc(Cl)c1Cc1ccc(O)c(C(C)C)c1F : 0.01 to 0.1 µM
Cc1cc(NC(=O)CC(=O)O)cc(C)c1Cc1ccc(O)c(C(C)c2ccc(F)cc2)c1 (stereo not drawn) : 0.01 to 0.1 µM
Cc1c(F)c(CSCC(=O)O)cc(Cl)c1Cc1ccc(O)c(C(C)C)c1 : 0.1 to 1 µM
Cc1cc(CSCC(=O)O)c(F)c(Cl)c1Cc1ccc(O)c(C(C)C)c1 : 0.1 to 1 µM
Cc1cc(CS(=O)(=O)CC(=O)O)cc(Cl)c1Cc1ccc(O)c(C(C)C)c1 : > 1 µM
CC(c1ccc(F)cc1)c1c(O)ccc(Cc2c(Cl)cc(CCC(=O)O)cc2Cl)c1F (stereo not drawn) : 0.01 to 0.1 µM

Prompt: Answer with reported EC50 of CC(C)c1c(O)ccc(Cc2c(Cl)cc(CC(N)C(=O)O)cc2Cl)c1F (stereo not drawn)
Response: 0.1 to 1 µM

Prompt: Note EC50 for the molecule shown: "CC(C)c1cc(Cc2c(Cl)cc(OC(F)(F)C(=O)O)cc2Cl)ccc1O"
Response: 0.1 to 1 µM

Prompt: Quote EC50 reported for "CC(C)c1cc(Cc2c(Cl)cc(CS(=O)(=O)CC(=O)O)cc2Cl)ccc1O" please.
Response: > 1 µM

Prompt: State its EC50: "CC(C)c1c(O)ccc(Cc2c(Cl)cc(CNCC(=O)O)cc2Cl)c1F"
Response: 0.1 to 1 µM

Prompt: Dear colleague, please send me the reported EC50 for "CC(C)c1cc(Cc2c(Cl)cc(SCC(=O)O)c(F)c2Cl)ccc1O" when you can.
Response: 0.01 to 0.1 µM

Prompt: Please report EC50 for the following molecule: "CC(C)c1cc(Cc2c(Cl)cc(/C=C\C(=O)O)cc2Cl)ccc1O"
Response: > 1 µM

Prompt: Write down EC50 measured for item "CNC(=O)C(F)(F)Oc1cc(Cl)c(Cc2ccc(O)c(C(C)C)c2)c(Cl)c1"
Response: 0.1 to 1 µM

Prompt: Let me know recorded EC50 for "Cc1c(F)c(NCC(=O)O)cc(Cl)c1Cc1ccc(O)c(C(C)C)c1F" , thanks.
Response: < 0.01 µM

Prompt: Provide one value: measured EC50 of "Cc1c(F)c(NCC(=O)O)cc(Cl)c1Cc1ccc(O)c(C(C)C)c1"
Response: 0.01 to 0.1 µM

Prompt: Give the reported EC50 for this molecule. "CC(C)c1cc(Cc2c(Cl)cc(CCC(=O)O)cc2Cl)ccc1O"
Response: 0.01 to 0.1 µM

Prompt: // fetch EC50 given entry "Cc1cc(CNCC(=O)O)cc(Cl)c1Cc1ccc(O)c(C(C)C)c1"
Response: > 1 µM
